B1: HDV Ribozyme (parent)
chain: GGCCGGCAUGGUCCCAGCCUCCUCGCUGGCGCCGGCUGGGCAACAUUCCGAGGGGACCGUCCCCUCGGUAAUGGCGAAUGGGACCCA

# Variants of: B1
# assay.name: self-cleavage, relative activity (ratio to wild type); higher = more cleavage; co-transcriptional
The entries below come with measured self-cleavage values attached.
Please respond with just the number, no unit label.

Worked examples follow.
Task item: Please indicate self-cleavage recorded for G28A A56G
Reply: 0.135

Task item: Specify measured self-cleavage for G2A G54C .
Reply: 0.296

Task item: Tell me measured self-cleavage for G52C G59A please.
Reply: 1.02

More entries:
Task item: In one line, give reported self-cleavage of the entry C14U A87G .
Reply: 1.07

Task item: Indicate its recorded self-cleavage; the variant in question is C26G C49G
Reply: 0.87

Task item: // fetch self-cleavage given entry C19G A43C
Reply: 0.0652
